System: Bifidobacterium adolescentis
Test Details: Antibacterial activity against Bifidobacterium adolescentis by CLSI M11-A6 agar dilution method
Assay type: functional
Decide using MIC90 alone. Strictly below 8 µg/mL: Satisfied. Equal to or above 8 µg/mL: Not satisfied.

Use these answered entries as a reference point.
CCCCCCCCCC(=O)N[C@@H](Cc1c[nH]c2ccccc12)C(=O)N[C@H](CC(N)=O)C(=O)N[C@@H](CC(=O)O)C(=O)N[C@@H]1C(=O)NCC(=O)N[C@@H](CCCN)C(=O)N[C@@H](CC(=O)O)C(=O)N[C@H](C)C(=O)N[C@@H](CC(=O)O)C(=O)NCC(=O)N[C@H](CO)C(=O)N[C@@H]([C@H](C)CC(=O)O)C(=O)N[C@@H](CC(=O)c2ccccc2N)C(=O)O[C@@H]1C
Not satisfied
CCC[C@@H]1C[C@@H](C(=O)N[C@@H]([C@H]2O[C@H](SC)[C@H](O)[C@@H](O)[C@H]2O)[C@H](C)Cl)N(C)C1
Satisfied
Cc1ncc([N+](=O)[O-])n1CCO
Not satisfied
CCCCCCCCCCNCCN[C@@]1(C)C[C@H](O[C@H]2[C@H](Oc3c4cc5cc3Oc3ccc(cc3Cl)[C@@H](O)[C@@H](NC(=O)[C@@H](CC(C)C)NC)C(=O)N[C@@H](CC(N)=O)C(=O)N[C@H]5C(=O)N[C@H]3C(=O)N[C@H](C(=O)N[C@H](C(=O)O)c5cc(O)c(CNCP(=O)(O)O)c(O)c5-c5cc3ccc5O)[C@H](O)c3ccc(c(Cl)c3)O4)O[C@H](CO)[C@@H](O)[C@@H]2O)O[C@@H](C)[C@H]1O
Satisfied

Given CN[C@H](CC(C)C)C(=O)N[C@H]1C(=O)N[C@@H](CC(N)=O)C(=O)N[C@H]2C(=O)N[C@H]3C(=O)N[C@H](C(=O)N[C@H](C(=O)O)c4cc(O)cc(O)c4-c4cc3ccc4O)[C@H](O)c3ccc(c(Cl)c3)Oc3cc2cc(c3O[C@@H]2O[C@H](CO)[C@@H](O)[C@H](O)[C@H]2O[C@H]2C[C@](C)(N)[C@H](O)[C@H](C)O2)Oc2ccc(cc2Cl)[C@H]1O , is recorded MIC90 strictly lower than 8 µg/mL? Satisfied

----------
Can you tell me MIC50 for the items I'm about to list?
Tested on: Sutterella wadsworthensis
Test Details: Antibacterial activity against Sutterella wadsworthensis by CLSI M11-A6 agar dilution method
Format: functional

// below: answered compounds
CC(=O)NC[C@H]1CN(c2ccc(N3CCOCC3)c(F)c2)C(=O)O1 [LINEZOLID]
> 128 µg/mL
CCCCCCCCCC(=O)N[C@@H](Cc1c[nH]c2ccccc12)C(=O)N[C@H](CC(N)=O)C(=O)N[C@@H](CC(=O)O)C(=O)N[C@@H]1C(=O)NCC(=O)N[C@@H](CCCN)C(=O)N[C@@H](CC(=O)O)C(=O)N[C@H](C)C(=O)N[C@@H](CC(=O)O)C(=O)NCC(=O)N[C@H](CO)C(=O)N[C@@H]([C@H](C)CC(=O)O)C(=O)N[C@@H](CC(=O)c2ccccc2N)C(=O)O[C@@H]1C
> 128 µg/mL
CCC[C@@H]1C[C@@H](C(=O)N[C@@H]([C@H]2O[C@H](SC)[C@H](O)[C@@H](O)[C@H]2O)[C@H](C)Cl)N(C)C1 [CLINDAMYCIN]
16 µg/mL
CN[C@H](CC(C)C)C(=O)N[C@H]1C(=O)N[C@@H](CC(N)=O)C(=O)N[C@H]2C(=O)N[C@H]3C(=O)N[C@H](C(=O)N[C@H](C(=O)O)c4cc(O)cc(O)c4-c4cc3ccc4O)[C@H](O)c3ccc(c(Cl)c3)Oc3cc2cc(c3O[C@@H]2O[C@H](CO)[C@@H](O)[C@H](O)[C@H]2O[C@H]2C[C@](C)(N)[C@H](O)[C@H](C)O2)Oc2ccc(cc2Cl)[C@H]1O [VANCOMYCIN]
> 128 µg/mL
CCCCCCCCCCNCCN[C@@]1(C)C[C@H](O[C@H]2[C@H](Oc3c4cc5cc3Oc3ccc(cc3Cl)[C@@H](O)[C@@H](NC(=O)[C@@H](CC(C)C)NC)C(=O)N[C@@H](CC(N)=O)C(=O)N[C@H]5C(=O)N[C@H]3C(=O)N[C@H](C(=O)N[C@H](C(=O)O)c5cc(O)c(CNCP(=O)(O)O)c(O)c5-c5cc3ccc5O)[C@H](O)c3ccc(c(Cl)c3)O4)O[C@H](CO)[C@@H](O)[C@@H]2O)O[C@@H](C)[C@H]1O [TELAVANCIN]
> 64 µg/mL

We next turn to a different compound, shown below.
What value of measured MIC50 is listed for Cc1ncc([N+](=O)[O-])n1CCO [METRONIDAZOLE] ? 16 µg/mL

----------
System: Paeniclostridium sordellii
Test Details: Antibacterial activity against Clostridium sordellii by CLSI M11-A6 agar dilution method
Assay type: functional
Recorded Conditions: Paraclostridium sordellii
Readout: MIC50

CC(=O)NC[C@H]1CN(c2ccc(N3CCOCC3)c(F)c2)C(=O)O1
2 µg/mL
CN[C@H](CC(C)C)C(=O)N[C@H]1C(=O)N[C@@H](CC(N)=O)C(=O)N[C@H]2C(=O)N[C@H]3C(=O)N[C@H](C(=O)N[C@H](C(=O)O)c4cc(O)cc(O)c4-c4cc3ccc4O)[C@H](O)c3ccc(c(Cl)c3)Oc3cc2cc(c3O[C@@H]2O[C@H](CO)[C@@H](O)[C@H](O)[C@H]2O[C@H]2C[C@](C)(N)[C@H](O)[C@H](C)O2)Oc2ccc(cc2Cl)[C@H]1O
1 µg/mL
CCCCCCCCCC(=O)N[C@@H](Cc1c[nH]c2ccccc12)C(=O)N[C@H](CC(N)=O)C(=O)N[C@@H](CC(=O)O)C(=O)N[C@@H]1C(=O)NCC(=O)N[C@@H](CCCN)C(=O)N[C@@H](CC(=O)O)C(=O)N[C@H](C)C(=O)N[C@@H](CC(=O)O)C(=O)NCC(=O)N[C@H](CO)C(=O)N[C@@H]([C@H](C)CC(=O)O)C(=O)N[C@@H](CC(=O)c2ccccc2N)C(=O)O[C@@H]1C
1 µg/mL
Cc1ncc([N+](=O)[O-])n1CCO
0.25 µg/mL

What value of measured MIC50 is listed for CCCCCCCCCCNCCN[C@@]1(C)C[C@H](O[C@H]2[C@H](Oc3c4cc5cc3Oc3ccc(cc3Cl)[C@@H](O)[C@@H](NC(=O)[C@@H](CC(C)C)NC)C(=O)N[C@@H](CC(N)=O)C(=O)N[C@H]5C(=O)N[C@H]3C(=O)N[C@H](C(=O)N[C@H](C(=O)O)c5cc(O)c(CNCP(=O)(O)O)c(O)c5-c5cc3ccc5O)[C@H](O)c3ccc(c(Cl)c3)O4)O[C@H](CO)[C@@H](O)[C@@H]2O)O[C@@H](C)[C@H]1O ? ≤ 0.12 µg/mL

----------
Tested on: Clostridioides difficile
Test Details: Antibacterial activity against Clostridium difficile by CLSI M11-A6 agar dilution method
Type: functional
Can you tell me MIC90 for the items I'm about to list?
Answers are plain numbers, in µg/mL.

// below: answered compounds
CN[C@H](CC(C)C)C(=O)N[C@H]1C(=O)N[C@@H](CC(N)=O)C(=O)N[C@H]2C(=O)N[C@H]3C(=O)N[C@H](C(=O)N[C@H](C(=O)O)c4cc(O)cc(O)c4-c4cc3ccc4O)[C@H](O)c3ccc(c(Cl)c3)Oc3cc2cc(c3O[C@@H]2O[C@H](CO)[C@@H](O)[C@H](O)[C@H]2O[C@H]2C[C@](C)(N)[C@H](O)[C@H](C)O2)Oc2ccc(cc2Cl)[C@H]1O
2
CCCCCCCCCC(=O)N[C@@H](Cc1c[nH]c2ccccc12)C(=O)N[C@H](CC(N)=O)C(=O)N[C@@H](CC(=O)O)C(=O)N[C@@H]1C(=O)NCC(=O)N[C@@H](CCCN)C(=O)N[C@@H](CC(=O)O)C(=O)N[C@H](C)C(=O)N[C@@H](CC(=O)O)C(=O)NCC(=O)N[C@H](CO)C(=O)N[C@@H]([C@H](C)CC(=O)O)C(=O)N[C@@H](CC(=O)c2ccccc2N)C(=O)O[C@@H]1C
1

For each of the items listed, what is its MIC90?
1. CCCCCCCCCCNCCN[C@@]1(C)C[C@H](O[C@H]2[C@H](Oc3c4cc5cc3Oc3ccc(cc3Cl)[C@@H](O)[C@@H](NC(=O)[C@@H](CC(C)C)NC)C(=O)N[C@@H](CC(N)=O)C(=O)N[C@H]5C(=O)N[C@H]3C(=O)N[C@H](C(=O)N[C@H](C(=O)O)c5cc(O)c(CNCP(=O)(O)O)c(O)c5-c5cc3ccc5O)[C@H](O)c3ccc(c(Cl)c3)O4)O[C@H](CO)[C@@H](O)[C@@H]2O)O[C@@H](C)[C@H]1O
2. CCC[C@@H]1C[C@@H](C(=O)N[C@@H]([C@H]2O[C@H](SC)[C@H](O)[C@@H](O)[C@H]2O)[C@H](C)Cl)N(C)C1
3. Cc1ncc([N+](=O)[O-])n1CCO
4. CC(=O)NC[C@H]1CN(c2ccc(N3CCOCC3)c(F)c2)C(=O)O1

1: 0.25; 2: 128; 3: 0.5; 4: 16
